system: BT-549; assay: NCI tumour cell line growth inhibition, 48 h
Activity calls are given as the source filed them. No stated cut-off is given here; in the data, active = GI50 up to about 1.1 µM and inactive = higher.
endpoint: GI50

Below are worked cases with known answers.
# compound, subject-of-test, GI50
data = [
    ("COC(=O)/C(C#N)=C/c1cc(C(C)(C)C)c(O)c(C(C)(C)C)c1", "BT-549", "2.77 µM (inactive)"),
    ("O=C(NC1CCN(Cc2ccccc2)CC1)c1ccccc1I", "BT-549", "51.1 µM (inactive)"),
    ("Nc1ccc(S(=O)(=O)Nc2cnc3c(Cl)cccc3n2)cc1", "BT-549", "> 60.5 µM (inactive)"),
    ("COc1ccc2cc(Oc3ccc(Cl)cc3)c(=O)oc2c1", "BT-549", "> 100 µM (inactive)"),
    ("CCOc1ccccc1/N=N/C1C(=O)N(C(=O)CC(=O)Nc2ccccc2Cl)N=C1C (stereo not given)", "BT-549", "78.7 µM (inactive)"),
]

Recall the recorded GI50 for `N#CCCN(CCCN(C(=O)N(c1ccccc1)c1ccccc1)c1ccccc1)C(=O)Nc1ccccc1` with BT-549 and state it.
> 100 µM (inactive)

Recall the recorded GI50 for `Oc1ccc(Cl)cc1/C=N/c1cnc2ccccc2c1` with BT-549 and state it.
22.3 µM (inactive)

Recall the recorded GI50 for COC(=O)/C=C1\C(=O)C=C2[C@@H]3C[C@H]4C[C@H](CC[C@@]4(C)N21)C3(C)NC(C)=O (stereo not given in full) with BT-549 and state it.
11.1 µM (inactive)

Recall the recorded GI50 for `Cc1c(/N=C/C=C/c2ccccc2)c(=O)n(-c2ccccc2)n1C` with BT-549 and state it.
22.8 µM (inactive)

Recall the recorded GI50 for `Cc1[nH]c2c(c1C)S(=O)(=O)c1cc3ccccc3nc1N2` with BT-549 and state it.
69.8 µM (inactive)
